Provenance of the data: patent US20160368965A1

Target: T1, HLA-A*02:01 (human)
T1 construct: the tested peptide takes its place; also called peptide-receptive MHC molecules; MHC class I
Assay: UV-ligand exchange, anti-β2m ELISA; grade of peptide exchange yield
Below: a set of entries, each annotated with reported peptide exchange yield.

What value of measured peptide exchange yield is listed for GLLAGNEKLTM [GLLAGNEKLTM (SEQ ID NO: 41)] ?
20 to 50%

What value of measured peptide exchange yield is listed for YIYKDTIQV [YIYKDTIQV (SEQ ID NO: 30)] ?
20 to 50%

What value of measured peptide exchange yield is listed for FLSDGTIISV [FLSDGTIISV (SEQ ID NO: 85)] ?
≥ 75%

What value of measured peptide exchange yield is listed for HLGVKVFSV [HLGVKVFSV (SEQ ID NO: 43)] ?
20 to 50%

What value of measured peptide exchange yield is listed for ALVDIVRSL [ALVDIVRSL (SEQ ID NO: 7)] ?
50 to 75%

***
What value of measured peptide exchange yield is listed for ILLAEGRLVNL [ILLAEGRLVNL (SEQ ID NO: 134)] ?
50 to 75%

What value of measured peptide exchange yield is listed for YVDDGLISL [YVDDGLISL (SEQ ID NO: 32)] ?
20 to 50%

What value of measured peptide exchange yield is listed for NLIGVTAEL [NLIGVTAEL (SEQ ID NO: 56)] ?
20 to 50%

What value of measured peptide exchange yield is listed for ALADDDFLTV [ALADDDFLTV (SEQ ID NO: 95)] ?
50 to 75%

What value of measured peptide exchange yield is listed for ALLSLDPAAV [ALLSLDPAAV (SEQ ID NO: 126)] ?
≥ 75%
